# System: Nicotinic Acetylcholine
# Assay type: binding
# assaySetup: 10 μM; human

lineNotation	unitInfo	% Inhibition
O=C(Nc1nnc(-c2ccc(F)cc2)o1)c1ccc(Oc2ccccc2)nc1	%	8
O=C(Nc1nnc(-c2ccc(F)cc2)o1)N1CCc2ccccc2C1	%	−8
O=C(Nc1nnc(-c2ccc(F)cc2)o1)c1ccc(OC2CCCCC2)cc1	%	1
O=C(Nc1nnc(-c2ccc(F)cc2)o1)N1CC=C(C(F)(F)F)CC1	%	−4

###

Measured CC50 of individual entries
# assayInfo: Mammalian cell cytotoxicity
endpoint: CC50

molecule	result
O=C(Nc1nnc(-c2ccc(F)cc2)o1)N1CCc2ccc(F)cc2C1	14.4 µM
Cc1cccc(Oc2ccc(C(=O)Nc3nnc(-c4ccc(F)cc4)o3)cc2)c1	> 100 µM
CC(Oc1ccc(C(=O)Nc2nnc(-c3ccc(F)cc3)o2)cc1)c1ccccc1 (stereo not shown)	45 µM
O=C(Nc1nnc(-c2ccc(F)cc2)o1)N1CCC(Cl)=C(Cl)C1	> 100 µM
O=C(Nc1nnc(-c2ccc(F)cc2)o1)N1CC=C(C(F)(F)F)CC1	> 100 µM
Cc1cc(C)cc(Oc2ccc(C(=O)Nc3nnc(-c4ccc(F)cc4)o3)cc2)c1	32 µM
O=C(Nc1nnc(-c2ccc(F)cc2)o1)N1CCN(c2ncccn2)CC1	> 100 µM
O=C(Nc1nnc(-c2ccc(F)cc2)o1)N1CCc2cc(F)ccc2C1	34 µM
Cc1cccc(-c2nnc(NC(=O)c3ccc(Oc4ccccc4)nc3)o2)c1	> 100 µM
O=C(Nc1nnc(-c2ccc(F)cc2)o1)c1ccc(Oc2ccccc2)nc1	> 100 µM
O=C(Nc1nnc(-c2ccc(F)cc2)o1)N1CCc2ccccc2C1	27.2 µM
COc1cccc(Oc2ccc(C(=O)Nc3nnc(-c4ccc(F)cc4)o3)cc2)c1	> 100 µM
CC1=CCN(C(=O)Nc2nnc(-c3ccc(F)cc3)o2)CC1	46 µM
O=C(Nc1nnc(-c2ccc(F)cc2)o1)N1Cc2ccccc2C1	> 100 µM
O=C(Nc1nnc(C2CCCC2)o1)c1ccc(Oc2ccccc2)nc1	> 100 µM
CCN(c1ccccc1)c1ccc(C(=O)Nc2nnc(-c3ccc(F)cc3)o2)cc1	59.9 µM
Cc1ccccc1-c1nnc(NC(=O)c2ccc(Oc3ccccc3)nc2)o1	> 100 µM
COc1ccc(Oc2ccc(C(=O)Nc3nnc(-c4ccc(F)cc4)o3)cc2)cc1	> 100 µM
CC(C)(C)OC(=O)N1CC(Oc2ccc(C(=O)Nc3nnc(-c4ccc(F)cc4)o3)cc2)C1	6.6 µM
O=C(Nc1nnc(-c2ccc(F)cc2)o1)c1ccc(OC2CCCC2)cc1	31.8 µM
O=C(Nc1nnc(-c2ccc(F)cc2)o1)c1ccc(OC2CCCCC2)cc1	23.7 µM
O=C(Nc1nnc(-c2ccc(F)cc2)o1)c1ccc(Oc2cccc(O)c2)cc1	> 100 µM
Cc1ccccc1Oc1ccc(C(=O)Nc2nnc(-c3ccc(F)cc3)o2)cc1	65 µM
Cc1ccc(Oc2ccc(C(=O)Nc3nnc(-c4ccc(F)cc4)o3)cc2)cc1	32 µM
COC(=O)C1=CCN(C(=O)Nc2nnc(-c3ccc(F)cc3)o2)CC1	> 100 µM
